EXPERIMENTAL_DETAILS: Solubility studies in pH buffer at 37° C. with HPLC analysis
Type: physicochemical
MEASUREMENT_PARAMETERS: pH buffer, 37 °C, pH 7.26, aqueous buffer, thermodynamic from solid, starting pH 7.26 buffer, 4 hr, average of Exp. 4-6, read-out: Avg. Solubility ± STD (mg/mL) 4 hr
Method: Solubility studies are conducted on the pracinostat diHCl co-crystal with fumaric acid according to the following method: 1. Weigh out ˜6 mg pracinostat diHCl co-crystal with fumaric acid in 5 mL pH buffer; 2. Stir samples at 37° C.; 3. After 1 hour, test and record pH, then remove a 2 mL sample for HPLC analysis; 4. Adjust pH of remaining solution using 0.2M NaOH or HCl, if necessary; 5. […] The solubility data are collected using an Agilent 1100 Series HPLC system and analyzed using Chemstation software. […]

{"columns": ["SAMPLE_SMILES", "solubility at 4 h"],
 "data": [
  ["CCCCc1nc2cc(/C=C/C(=O)NO)ccc2n1CCN(CC)CC", "0.1 mg/mL"]
]}

* * *

EXPERIMENTAL_DETAILS: Solubility studies in pH buffer at 37° C. with HPLC analysis
Type: physicochemical
MEASUREMENT_PARAMETERS: pH buffer, 37 °C, pH 7.26, aqueous buffer, thermodynamic from solid, starting pH 7.26 buffer, 1 hr, average of Exp. 4-6, read-out: Avg. Solubility ± STD (mg/mL) 1 hr

{"columns": ["SAMPLE_SMILES", "solubility at 1 h, mg/mL"],
 "data": [
  ["CCCCc1nc2cc(/C=C/C(=O)NO)ccc2n1CCN(CC)CC", 0.16]
]}

* * *

EXPERIMENTAL_DETAILS: Solubility studies in pH buffer at 37° C. with HPLC analysis
Type: physicochemical
MEASUREMENT_PARAMETERS: pH buffer, 37 °C, pH 7.26, aqueous buffer, thermodynamic from solid, starting pH 7.26 buffer, 4 hr, single experiments, read-out: Solubility (mg/mL) 4 hr

{"columns": ["SAMPLE_SMILES", "solubility at 4 h, mg/mL"],
 "data": [
  ["CCCCc1nc2cc(/C=C/C(=O)NO)ccc2n1CCN(CC)CC", 0.08]
]}
